Molecular target: αllbβ3 receptor (Homo sapiens, UniProt P05106+P08514)
Experiment: similar competitive assay with purified αllbβ3 receptor and 125I-echistatin (specificity index versus αvβ3)
Format: binding
Conditions: IC50 αllbβ3 / IC50 αvβ3
Note to self: SPECIFICITY αIIb β3/αvβ3 (specificity index) under 60 means t, ties and anything higher get f.

I'd appreciate it if you could check whether O=C(N[C@@H](CNC(=O)c1ccc(CN(Cc2nc3ccccc3[nH]2)C(=O)Nc2cccc3ccccc23)cc1)C(=O)O)OCc1ccccc1 [Example 5-37] has SPECIFICITY αIIb β3/αvβ3 (specificity index) smaller than 60.
f

// repeat for COc1ccc(OC(=O)N(Cc2ccc(C(=O)NC[C@H](NC(=O)OCc3ccccc3)C(=O)O)cc2)Cc2nc3ccccc3[nH]2)cc1 [Example 5-21] and report
t

// repeat for CC(C)C(=O)N(Cc1ccc(C(=O)NC[C@H](NC(=O)OCc2ccccc2)C(=O)O)cc1)Cc1nc2ccccc2[nH]1 [Example 5-13] and report
t

// repeat for O=C(N[C@H](CNC(=O)c1ccc(CN(Cc2nc3ccccc3[nH]2)C(=O)CCc2ccccc2)cc1)C(=O)O)OCc1ccccc1 [Example 5-59] and report
f

// repeat for COCC(=O)N(CCc1nc2ccccc2[nH]1)Cc1ccc(C(=O)NCC(NC(=O)OCc2ccccc2)C(=O)O)cc1 (centres unmarked) [Example 5-72] and report
t

// repeat for CCCCOC(=O)N[C@@H](CNC(=O)c1ccc(CN(Cc2nc3ccccc3[nH]2)C(=O)Nc2ccc(F)cc2)cc1)C(=O)O [Example 5-88] and report
f

// repeat for CCOC(=O)[C@H](CCSC)NC(=O)N(Cc1ccc(C(=O)NC[C@H](NC(=O)OCc2ccccc2)C(=O)O)cc1)Cc1nc2ccccc2[nH]1 [Example 5-48] and report
f

// repeat for CCOC(=O)[C@H](Cc1ccccc1)NC(=O)N(Cc1ccc(C(=O)NC[C@H](NC(=O)OCc2ccccc2)C(=O)O)cc1)Cc1nc2ccccc2[nH]1 [Example 5-52] and report
f

* * *

Target: αllbβ3 receptor (Homo sapiens, UniProt P05106+P08514)
Assay: similar competitive assay with purified αllbβ3 receptor and 125I-echistatin (specificity index versus αvβ3)
Assay type: binding
Details: IC50 αllbβ3 / IC50 αvβ3
Would you please tag the item 1.0 when its SPECIFICITY αIIb β3/αvβ3 (specificity index) is 50 or above, and 0.0 when it is below?

Has O=C(N[C@@H](CNC(=O)c1ccc(CN(Cc2nc3ccccc3[nH]2)C(=O)NC2CCCCC2)cc1)C(=O)O)OCc1ccccc1 a recorded SPECIFICITY αIIb β3/αvβ3 (specificity index) greater than or equal to 50?
1.0

// repeat for O=C(O)CC(NC(=O)c1ccc(CN(Cc2nc3ccccc3[nH]2)C(=O)CCc2ccccc2)cc1)c1ccccc1 (stereo not shown) and report
0.0

// repeat for O=C(O)CC(NC(=O)c1ccc(CNCc2nc3ccccc3[nH]2)cc1)c1ccccc1 (stereo not shown) and report
0.0

// repeat for O=C(N[C@H](CNC(=O)c1ccc(CNCc2nc3ccccc3[nH]2)cc1)C(=O)O)OCc1ccccc1 and report
0.0

// repeat for CN(Cc1ccc(C(=O)NC[C@H](NC(=O)OCc2ccccc2)C(=O)O)cc1)Cc1nc2ccccc2[nH]1 and report
1.0

// repeat for CCCCOC(=O)N[C@@H](CNC(=O)c1ccc(CN(Cc2nc3ccccc3[nH]2)C(=O)Nc2ccc(C(=O)OCC)cc2)cc1)C(=O)O and report
1.0

// repeat for COCC(=O)N(Cc1ccc(C(=O)NC(CC(=O)O)c2ccccc2)cc1)Cc1nc2ccccc2[nH]1 (stereo not shown) and report
0.0

// repeat for CN(C)C(=O)N(Cc1ccc(C(=O)NC[C@H](NC(=O)OCc2ccccc2)C(=O)O)cc1)Cc1nc2ccccc2[nH]1 and report
0.0

// repeat for CCOC(=O)c1ccc(NC(=O)N(Cc2ccc(C(=O)NC[C@H](NC(=O)OCc3ccccc3)C(=O)O)cc2)Cc2nc3ccccc3[nH]2)cc1 and report
1.0

// repeat for CC(=O)N(Cc1ccc(C(=O)NC[C@H](NC(=O)OCc2ccccc2)C(=O)O)cc1)C(C)c1nc2ccccc2[nH]1 (stereo partly shown) and report
0.0

// repeat for CCCCOC(=O)N[C@@H](CNC(=O)c1ccc(CN(Cc2nc3ccccc3[nH]2)C(=O)NC2CCCCC2)cc1)C(=O)O and report
1.0

// repeat for O=C(N[C@@H](CNC(=O)c1ccc(CN(Cc2nc3ccccc3[nH]2)C(=S)NC2CCCCC2)cc1)C(=O)O)OCc1ccccc1 and report
1.0

* * *

What IC50 was measured for each of the following?
Biological target: αvβ3 receptor (Homo sapiens, UniProt P05106+P06756)
Construct: αvβ3 receptor (purified from human placenta)
Test: competition radioligand binding assay, 125I-echistatin to purified αvβ3 receptor
Conditions: inhibition of specific binding of 125I-echistatin (0.05 nM), 3 hour incubation at room temperature

Look at this molecule and give its reported IC50. COCC(=O)N(Cc1ccc(C(=O)NC[C@H](NC(=O)OCc2ccccc2)C(=O)O)cc1)Cc1nc2ccccc2[nH]1
0.42 nM

// repeat for O=C(N[C@@H](CNC(=O)c1cccc(CN(Cc2nc3ccccc3[nH]2)C(=O)c2ccc(Cl)cc2)c1)C(=O)O)OCc1ccccc1 and report
~500 nM

// repeat for CN(C)C(=O)N(Cc1ccc(C(=O)NC[C@H](NC(=O)OCc2ccccc2)C(=O)O)cc1)Cc1nc2ccccc2[nH]1 and report
2.8 nM

// repeat for CC(=O)N(Cc1cccc(C(=O)NC[C@H](NC(=O)OCc2ccccc2)C(=O)O)c1)Cc1nc2ccccc2[nH]1 and report
~500 nM

// repeat for O=C(N[C@@H](CNC(=O)c1ccc(CNCc2nc3ccccc3[nH]2)cc1)C(=O)O)OCc1ccccc1 and report
5.4 nM

// repeat for O=C(N[C@@H](CNC(=O)c1ccc(CN(Cc2nc3ccccc3[nH]2)C(=O)c2ccc(Cl)cc2)cc1)C(=O)O)OCc1ccccc1 and report
6.5 nM

// repeat for O=C(N[C@@H](CNC(=O)c1ccc(CN(Cc2nc3ccccc3[nH]2)C(=O)C(F)(F)F)cc1)C(=O)O)OCc1ccccc1 and report
5.6 nM

// repeat for CC(C)NC(=O)N(Cc1ccc(C(=O)NC[C@H](NC(=O)OCc2ccccc2)C(=O)O)cc1)Cc1nc2ccccc2[nH]1 and report
2.3 nM

// repeat for CC(=O)N(Cc1ccc(C(=O)NC[C@H](NC(=O)OCc2ccccc2)C(=O)O)cc1)Cc1nc2ccccc2[nH]1 and report
1.9 nM

// repeat for O=C(N[C@@H](CNC(=O)c1cccc(CN(Cc2nc3ccccc3[nH]2)C(=O)c2ccc3c(c2)OCO3)c1)C(=O)O)OCc1ccccc1 and report
~500 nM

// repeat for CCCC(=O)N(Cc1ccc(C(=O)NC[C@H](NC(=O)OCc2ccccc2)C(=O)O)cc1)Cc1nc2ccccc2[nH]1 and report
3.4 nM

// repeat for O=C(N[C@@H](CNC(=O)c1ccc(CN(Cc2nc3ccccc3[nH]2)C(=O)c2ccc3c(c2)OCO3)cc1)C(=O)O)OCc1ccccc1 and report
2.9 nM

// repeat for COCC(=O)N(Cc1cccc(C(=O)NC[C@H](NC(=O)OCc2ccccc2)C(=O)O)c1)Cc1nc2ccccc2[nH]1 and report
~500 nM

// repeat for O=C(N[C@@H](CNC(=O)c1cccc(CNCc2nc3ccccc3[nH]2)c1)C(=O)O)OCc1ccccc1 and report
~500 nM

* * *

Biological target: αllbβ3 receptor (Homo sapiens, UniProt P05106+P08514)
Assay: similar competitive assay with purified αllbβ3 receptor and 125I-echistatin (specificity index versus αvβ3)
Format: binding
Details: IC50 αllbβ3 / IC50 αvβ3
Parameter: SPECIFICITY αIIb β3/αvβ3 (specificity index)

Look at this compound and give its reported SPECIFICITY αIIb β3/αvβ3 (specificity index). O=C(N[C@@H](CNC(=O)c1ccc(CN(Cc2nc3ccccc3[nH]2)C(=O)NC23CC4CC(CC(C4)C2)C3)cc1)C(=O)O)OCc1ccccc1 [Example 5-40]
288

// repeat for CC(C)(C)OC(=O)N[C@@H](CNC(=O)c1ccc(CN(Cc2nc3ccccc3[nH]2)C(=O)CCC2CCCC2)cc1)C(=O)O [Example 5-64] and report
499

// repeat for COCC(=O)N(Cc1ccc(C(=O)NC[C@H](NC(=O)OCc2ccccc2)C(=O)O)cc1)C(C)c1nc2ccccc2[nH]1 (stereo partly drawn) [Example 5-77] and report
12.4

* * *

Biological target: αllbβ3 receptor (Homo sapiens, UniProt P05106+P08514)
Assay: similar competitive assay with purified αllbβ3 receptor and 125I-echistatin (specificity index versus αvβ3)
Assay type: binding
Settings: IC50 αllbβ3 / IC50 αvβ3
Parameter: SPECIFICITY αIIb β3/αvβ3 (specificity index)

Look at this molecule and give its reported SPECIFICITY αIIb β3/αvβ3 (specificity index). CC(=O)OC(C(=O)N(Cc1ccc(C(=O)NC[C@H](NC(=O)OCc2ccccc2)C(=O)O)cc1)Cc1nc2ccccc2[nH]1)c1ccccc1 (stereo partly shown) [Example 5-18]
82

// repeat for O=C(N[C@@H](CNC(=O)c1ccc(CN(Cc2nc3ccccc3[nH]2)C(=O)C2CC2c2ccccc2)cc1)C(=O)O)OCc1ccccc1 (stereo partly shown) [Example 5-22] and report
26

// repeat for O=C(NC(CNC(=O)c1ccc(CN(CCc2nc3ccccc3[nH]2)C(=O)CCc2ccccc2)cc1)C(=O)O)OCc1ccccc1 (stereo not shown) [Example 5-73] and report
0.7

// repeat for CN(C)CC(=O)N(Cc1ccc(C(=O)NC[C@H](NC(=O)OCc2ccccc2)C(=O)O)cc1)Cc1nc2ccccc2[nH]1 [Example 5-24] and report
14

// repeat for COCCNC(=S)N(Cc1ccc(C(=O)NC[C@H](NC(=O)OCc2ccccc2)C(=O)O)cc1)Cc1nc2ccccc2[nH]1 [Example 5-56] and report
514

// repeat for CCOC(=O)[C@H](C)NC(=O)N(Cc1ccc(C(=O)NC[C@H](NC(=O)OCc2ccccc2)C(=O)O)cc1)Cc1nc2ccccc2[nH]1 [Example 5-50] and report
805

// repeat for CCCC(=O)N(Cc1ccc(C(=O)NC[C@H](NC(=O)OCc2ccccc2)C(=O)O)cc1)Cc1nc2ccccc2[nH]1 [Example 5-11] and report
70

// repeat for CCCNC(=O)N(Cc1ccc(C(=O)NC[C@H](NC(=O)OCc2ccccc2)C(=O)O)cc1)Cc1nc2ccccc2[nH]1 [Example 5-39] and report
223

// repeat for O=C(N[C@@H](CNC(=O)c1ccc(CN(Cc2nc3ccccc3[nH]2)C(=O)N2CCOCC2)cc1)C(=O)O)OCc1ccccc1 [Example 5-42] and report
39

// repeat for COCC(=O)N(Cc1ccc(C(=O)NC[C@H](NC(=O)OC(C)(C)C)C(=O)O)cc1)Cc1nc2ccccc2[nH]1 [Example 5-62] and report
419

// repeat for CCCCOC(=O)N[C@@H](CNC(=O)c1ccc(CN(Cc2nc3ccccc3[nH]2)C(=O)NC(C)C)cc1)C(=O)O [Example 5-84] and report
712

// repeat for CC(C)(C)OC(=O)N[C@@H](CNC(=O)c1ccc(CN(Cc2nc3ccccc3[nH]2)C(=O)CCc2ccccc2)cc1)C(=O)O [Example 5-63] and report
293

// repeat for CC(=O)N(CCc1nc2ccccc2[nH]1)Cc1ccc(C(=O)NCC(NC(=O)OCc2ccccc2)C(=O)O)cc1 (stereo not shown) [Example 5-71] and report
0.3
